Tested on: IGROV1 ovarian
experimentNotes: NCI tumour cell line growth inhibition, 48 h
GI50 reference

Cn1c(=O)c(Oc2ccc(F)cc2F)cc2cnc(NC(C)(C)CO)nc21 ... > 25 µM
Oc1ccc(Nc2ccc3ccccc3c2)cc1 ... 3.75 µM
Cc1c(O)c(N=Nc2nc3ccccc3s2)c2ccccc2c1O ... 17.6 µM
CCN1CCC(Nc2ccnc3cc(Cl)ccc23)CC1 ... 11.7 µM
CN(CCCCCl)P(=O)(OCCS(=O)(=O)CC(NC(=O)CCC(N)C(=O)O)C(=O)NC(C(=O)O)c1ccccc1)OCC1OC(n2ccc(N)nc2=O)C(O)C1O (centres undefined) ... 3.31 µM

Response field GI50 (IGROV1 ovarian) for item O=c1oc2ccc(I)cc2c(=O)n1-c1ccc(F)cc1F : 2.07 µM

Response field GI50 (IGROV1 ovarian) for item CN(C)c1ccc(/C=C/c2ccc(S(N)(=O)=O)cc2)cc1 : 13.4 µM

Response field GI50 (IGROV1 ovarian) for item COc1ccc2c3c(Nc4cccc(/C(C)=N\O)c4)[nH]c4ccccc4c-3c(N=O)c2c1 : 26.1 µM

Response field GI50 (IGROV1 ovarian) for item CC(=O)/C(=C/c1ccccc1)C(=O)CC(C)C : 16.4 µM

====

Tested on: NCI-H23 lung
experimentNotes: NCI tumour cell line growth inhibition, 48 h; in the data active means GI50 below about 0.43 µM; inactive means the rest
Answer with one of the outcomes active, inactive

Please review the entries below; each comes with its answer.
CCCCCCCCCCCCCCCCCc1nccn1CCOCCO ... inactive
CN(C)CCCN(CCC1CCCCC1)CCC1CCCCC1 ... inactive

Qu. Test call for this molecule, please: CC(=O)/C(=C/c1ccccc1)C(=O)CC(C)C
Ans. inactive

Qu. Test call for this molecule, please: COC1C(O)CC(OC2CC(OC3CC(O[C@@H]4C(=O)c5c(cc6cc(OC7CC(OC8CC(O)C(O)C(C)O8)C(O)C(C)O7)c(C)c(O)c6c5O)CC4[C@H](OC)C(=O)O)OC(C)C3O)OC(C)C2O)OC1C (some centres not stated)
Ans. inactive

Qu. Test call for this molecule, please: O=C1/C=C/[C@@H](O)[C@@H]2C[C@@H](O)C[C@H]2/C=C/CCC[C@H](CCc2cccc3ccccc23)O1
Ans. active

Qu. Test call for this molecule, please: Cc1c(-c2ccc(C3CCCCC3)cc2)nc2ccc(F)cc2c1C(=O)O
Ans. inactive

Qu. Test call for this molecule, please: C[C@@]1(C(=O)O)CCC[C@]2(C)C1CC[C@@]13C[C@@](O)(CC[C@]12O)[C@@]1(CO1)C3 (some centres not stated)
Ans. inactive

====

TGI reference
Test system: OVCAR-8 ovarian
experimentNotes: NCI tumour cell line growth inhibition, 48 h

Response field TGI (OVCAR-8 ovarian) for item CC1(C)S[C@@H]2[C@H](N3C(=O)c4ccccc4C3=O)CN2[C@H]1NC(=O)N[C@@H]1N2C[C@@H](N3C(=O)c4ccccc4C3=O)[C@H]2SC1(C)C : > 100 µM

Response field TGI (OVCAR-8 ovarian) for item C[C@]12CCC(=O)C(OC(=O)c3ccc([N+](=O)[O-])cc3)=C1CCC2=O : > 100 µM

Response field TGI (OVCAR-8 ovarian) for item CC12C3C4C1C1C2C3C41CO (stereo not given) : > 100 µM

Response field TGI (OVCAR-8 ovarian) for item c1cc(-c2ccc(-c3ccc(-c4ccc(-c5ccncc5)o4)cc3)o2)ccn1 : 33.5 µM

Response field TGI (OVCAR-8 ovarian) for item CCCCCCCCCCCCOP(=O)(O)OP(=O)(O)OCC1OC(n2ccc(N)nc2=O)CC1O (stereo not given) : > 100 µM
